# Test system: lymphocytic leukemia P388
# measurement_protocol: Lymphocytic leukemia P388 test (intraperitoneal administration)
# Assay type: in vivo, DBA/2 mice
# assay_conditions: Mus musculus, P388, ip; 25 mg./kg. i.p., days 1, 5 and 9; efficacy ≥125%; read-out: T/C × 100
Threshold 200%: response vs control in vivo at 25 mg/kg strictly smaller gives t, otherwise f.

compound=O=C1c2c(O)ccc(O)c2C(=O)c2c(NCCN3CCCC3)ccc(NCCN3CCCC3)c21 system_name="lymphocytic leukemia P388" group_label=t
compound=NCCCNC1=C2C(=O)c3c(O)ccc(O)c3C(=O)C2=C(NCCCN)CC1 system_name="lymphocytic leukemia P388" group_label=t

Exam item: Hi there! Is response vs control in vivo at 25 mg/kg for CN(C)CCNc1ccc(NCCN(C)C)c2c1C(=O)c1c(O)ccc(O)c1C2=O below 200%, do you know?
Marked response: f

Exam item: Hi there! Is response vs control in vivo at 25 mg/kg for Cl.Cl.O=C1c2c(O)ccc(O)c2C(=O)c2c(NCCN(CCO)CCO)ccc(NCCN(CCO)CCO)c21 [dihydrochloride] below 200%, do you know?
Marked response: f

* * *

# Tested on: lymphocytic leukemia P388
# measurement_protocol: Lymphocytic leukemia P388 test (intraperitoneal administration)
# Type: in vivo, DBA/2 mice
# assay_conditions: Mus musculus, P388, ip; 25 mg./kg. i.p., days 1, 5 and 9; efficacy ≥125%; read-out: T/C × 100
Known response vs control in vivo at 25 mg/kg of a selection of molecules
Respond numerically; units are % and should not be typed.

Guide cases for response vs control in vivo at 25 mg/kg, answers given:
molecule=CNCCNC1=C2C(=O)c3c(O)ccc(O)c3C(=O)C2=C(NCCNC)CC1 reported=173
molecule="CC(O)CNCCNC1=C2C(=O)c3c(O)ccc(O)c3C(=O)C2=C(NCCNCC(C)O)CC1 (centres unmarked)" reported=186
molecule=O=C1C2=C(NCCN3CCNCC3)CCC(NCCN3CCNCC3)=C2C(=O)c2c(O)ccc(O)c21 reported=167
molecule="CC(O)CNCCNc1ccc(NCCNCC(C)O)c2c1C(=O)c1c(O)ccc(O)c1C2=O.Cl.Cl (centres unmarked) [dihydrochloride]" reported=120
molecule=CN(C)CCNC1=C2C(=O)c3c(O)ccc(O)c3C(=O)C2=C(NCCN(C)C)CC1 reported=190
molecule=CN(C)CCCNc1ccc(NCCCN(C)C)c2c1C(=O)c1c(O)ccc(O)c1C2=O reported=129
molecule=O=C1C2=C(NCCNCCO)CCC(NCCNCCO)=C2C(=O)c2c(O)ccc(O)c21 reported=114

Let us move to another entry and its response vs control in vivo at 25 mg/kg.
Exam item: Query: response vs control in vivo at 25 mg/kg; subject: NCCNC1=C2C(=O)c3c(O)ccc(O)c3C(=O)C2=C(NCCN)CC1
Marked response: 158

* * *

Known Median Survival Time of a selection of molecules
# System: melanotic melanoma B16
# measurement_protocol: Melanotic Melanoma B16 test
# Format: in vivo, C57BC/6 mice
# assay_conditions: 12 mg./kg. i.p., days 1 through 9
Respond numerically; units are days and should not be typed.

Exam item: Query: Median Survival Time; subject: NCCNC1=C2C(=O)c3c(O)ccc(O)c3C(=O)C2=C(NCCN)CC1
Marked response: 32.0

Exam item: Query: Median Survival Time; subject: NCCCNC1=C2C(=O)c3c(O)ccc(O)c3C(=O)C2=C(NCCCN)CC1
Marked response: 23.5

Exam item: Query: Median Survival Time; subject: NCCNCCNc1ccc(NCCNCCN)c2c1C(=O)c1c(O)ccc(O)c1C2=O
Marked response: 22.0
